system: TTR; experiment: TTR editing in primary cyno hepatocytes electroporated with Spy Cas9 protein and dgRNAs (Tables 10, 11); type: cell-based, cynomolgus monkey; settings: Table 10; primary cyno hepatocytes electroporated with Spy Cas9 protein (RNP) and dgRNAs
property: Avg % Edit (%)
Give just the numeric value; % need not be written.

[
  {
    "item-sequence": "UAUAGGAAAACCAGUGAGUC (tested as dual guide RNA, chemistry not given here) [CR005305]",
    "result-number": 11.28
  }
]

Note Avg % Edit for the sequence shown: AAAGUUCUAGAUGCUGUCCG (tested as dual guide RNA, chemistry not given here) [CR003346]
1.91

Note Avg % Edit for the sequence shown: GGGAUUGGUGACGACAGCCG (tested as dual guide RNA, chemistry not given here) [CR003390]
16.87

Note Avg % Edit for the sequence shown: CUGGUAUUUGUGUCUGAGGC (tested as dual guide RNA, chemistry not given here) [CR003341]
8.43

Note Avg % Edit for the sequence shown: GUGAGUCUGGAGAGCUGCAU (tested as dual guide RNA, chemistry not given here) [CR003360]
29.47

Note Avg % Edit for the sequence shown: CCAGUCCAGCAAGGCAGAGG (tested as dual guide RNA, chemistry not given here) [CR003337]
24.94

Note Avg % Edit for the sequence shown: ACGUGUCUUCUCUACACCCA (tested as dual guide RNA, chemistry not given here) [CR005302]
1.34

###

test system: TTR; experiment: TTR editing in HEK293_Cas9 cells transfected with dgRNAs (Table 4); assay type: cell-based, human; details: HEK293_Cas9 cells (constitutively express Spy Cas9) transfected with dgRNAs
Binary classification by Avg % Insert, with 5% as an inclusive lower bound for Yes; all other cases are No.

[
  {
    "item-sequence": "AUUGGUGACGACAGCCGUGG (tested as dual guide RNA, chemistry not given here) [CR003389]",
    "group-label": "Yes"
  },
  {
    "item-sequence": "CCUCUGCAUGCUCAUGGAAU (tested as dual guide RNA, chemistry not given here) [CR003370]",
    "group-label": "No"
  },
  {
    "item-sequence": "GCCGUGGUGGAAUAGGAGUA (tested as dual guide RNA, chemistry not given here) [CR003387]",
    "group-label": "Yes"
  },
  {
    "item-sequence": "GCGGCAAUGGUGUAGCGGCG (tested as dual guide RNA, chemistry not given here) [CR003377]",
    "group-label": "No"
  },
  {
    "item-sequence": "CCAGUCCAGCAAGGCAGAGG (tested as dual guide RNA, chemistry not given here) [CR003337]",
    "group-label": "Yes"
  },
  {
    "item-sequence": "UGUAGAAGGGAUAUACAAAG (tested as dual guide RNA, chemistry not given here) [CR003365]",
    "group-label": "Yes"
  }
]

Is Avg % Insert at least 5%? Consider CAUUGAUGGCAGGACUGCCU (tested as dual guide RNA, chemistry not given here) [CR003347]
No

Is Avg % Insert at least 5%? Consider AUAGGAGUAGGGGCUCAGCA (tested as dual guide RNA, chemistry not given here) [CR003383]
Yes

Is Avg % Insert at least 5%? Consider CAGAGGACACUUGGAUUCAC (tested as dual guide RNA, chemistry not given here) [CR003343]
No

Is Avg % Insert at least 5%? Consider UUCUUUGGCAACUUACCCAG (tested as dual guide RNA, chemistry not given here) [CR003357]
Yes

Is Avg % Insert at least 5%? Consider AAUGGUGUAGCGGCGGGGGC (tested as dual guide RNA, chemistry not given here) [CR003375]
No

Is Avg % Insert at least 5%? Consider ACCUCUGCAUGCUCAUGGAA (tested as dual guide RNA, chemistry not given here) [CR003371]
No

Is Avg % Insert at least 5%? Consider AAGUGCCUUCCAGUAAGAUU (tested as dual guide RNA, chemistry not given here) [CR003368]
No

Is Avg % Insert at least 5%? Consider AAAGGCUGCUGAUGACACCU (tested as dual guide RNA, chemistry not given here) [CR003353]
No

###

system: TTR; experiment: TTR editing in primary human hepatocytes electroporated with Spy Cas9 protein loaded with dgRNAs (Table 7); type: cell-based; conditions: dgRNA electroporated with Spy Cas9 protein (RNP)
Binary classification by Avg % Deletion, with 0.9% as an inclusive lower bound for satisfied; all other cases are not satisfied.

A selection of reference data follows.
[
  {
    "item-sequence": "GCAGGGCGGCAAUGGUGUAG (tested as dual guide RNA, chemistry not given here) [CR003380]",
    "group-label": "not satisfied"
  },
  {
    "item-sequence": "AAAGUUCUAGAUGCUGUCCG (tested as dual guide RNA, chemistry not given here) [CR003346]",
    "group-label": "satisfied"
  },
  {
    "item-sequence": "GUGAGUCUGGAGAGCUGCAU (tested as dual guide RNA, chemistry not given here) [CR003360]",
    "group-label": "not satisfied"
  }
]

Is Avg % Deletion at least 0.9%? Consider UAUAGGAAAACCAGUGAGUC (tested as dual guide RNA, chemistry not given here) [CR005305]
not satisfied

Is Avg % Deletion at least 0.9%? Consider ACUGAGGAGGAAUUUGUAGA (tested as dual guide RNA, chemistry not given here) [CR003363]
satisfied
